Where do these numbers come from? They come from patent US20090170763A1.

- study_target: rat GHS-R (GHS receptor) expressed on CHO-GHSR62 cells (rat, UniProt O08725 1-364)
- Sequence (O08725 whole entry): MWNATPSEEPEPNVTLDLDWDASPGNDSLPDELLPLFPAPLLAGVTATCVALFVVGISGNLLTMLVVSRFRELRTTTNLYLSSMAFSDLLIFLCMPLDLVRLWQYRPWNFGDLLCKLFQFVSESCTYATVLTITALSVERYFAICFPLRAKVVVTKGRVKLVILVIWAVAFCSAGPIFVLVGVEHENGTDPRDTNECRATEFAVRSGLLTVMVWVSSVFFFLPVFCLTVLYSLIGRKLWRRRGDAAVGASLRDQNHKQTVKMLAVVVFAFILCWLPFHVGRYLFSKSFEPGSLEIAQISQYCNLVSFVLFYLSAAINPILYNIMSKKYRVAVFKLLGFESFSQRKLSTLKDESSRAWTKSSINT
- experimental_details: cell-based or functional assay
Ends that are not written are not given here. * marks the point of attachment. Octanoyl = CCCCCCCC(=O)*
Recorded Ca-releasing activity EC50 for the following binders
Write the answer as a number in nM, unit excluded.

Study these solved cases before continuing.
[
  {
    "binder": "GSS(Octanoyl)FLSPEHQ [Ghrelin (1-10)]",
    "Ca-releasing activity EC50 / nM": 19
  },
  {
    "binder": "GSS(Octanoyl)FL [Ghrelin (1-5)]",
    "Ca-releasing activity EC50 / nM": 68
  }
]

Exam item: Any idea what Ca-releasing activity EC50 was measured for GSS(Octanoyl)F-NH2 (N-terminus assumed; SMILES CCCCCCCC(=O)OC[C@H](NC(=O)[C@H](CO)NC(=O)CN)C(=O)N[C@@H](Cc1ccccc1)C(N)=O) [Ghrelin (1-4)-amide] ?
Marked response: 160
